- System: OVCAR-5 ovarian
- test description: NCI tumour cell line growth inhibition, 48 h
In this section, each of the compounds is paired with its reported TGI.

{"columns": ["smiles repr", "TGI"],
 "data": [
  ["S=c1nc(/C=C/c2ccc(Cl)c(Cl)c2)[nH][nH]1", "> 100 µM"]
]}

-- ask I am curious: what TGI value has been reported for `Cn1cc(-c2ccc3c(c2)ncn3-c2ccc(CC(=O)Nc3cc(C(C)(C)C)on3)cc2)cn1` ?
-- reply > 27.2 µM

-- ask I am curious: what TGI value has been reported for `Cn1cc(-c2nonc2-c2cn(C)c3ccc(Br)cc23)c2ccccc21` ?
-- reply > 100 µM

---

- System: SNB-75 CNS
- test description: NCI tumour cell line growth inhibition, 48 h
In this section, each of the molecules is paired with its reported TGI.

Example entries begin here.
{"columns": ["molecule", "TGI"],
 "data": [
  ["c1cc(-c2ccc(Oc3ccc(-c4ccncc4)cc3)cc2)ccn1", "> 73.7 µM"],
  ["CC1(C)O[C@@H]([C@@H](O)[C@H](O)C2SCCCS2)[C@@H](CO)O1", "> 100 µM"]
]}

-- ask I am curious: what TGI value has been reported for COc1ccc(C2C(Cl)C(=O)N2NC(=O)c2ccc(NC(C)=O)cc2)cc1OC (stereo not drawn) ?
-- reply > 100 µM

-- ask I am curious: what TGI value has been reported for `COc1cc(-c2[nH]ncc2CCCC(=O)Nc2ccccc2[N+](=O)[O-])ccc1O` ?
-- reply > 100 µM

-- ask I am curious: what TGI value has been reported for `CCOC(=O)/C(=C/c1c(-c2ccccc2)[nH]c2ccccc12)C(=O)c1ccc(Cl)cc1` ?
-- reply > 100 µM

-- ask I am curious: what TGI value has been reported for `Cc1cc2c(cc1-c1cc3c(cc1C)C(C(C)C)=C(O)C(=O)/C3=C\Nc1cccc3c(N)cccc13)/C(=C/Nc1cccc3c(N)cccc13)C(=O)C(O)=C2C(C)C` ?
-- reply > 100 µM

-- ask I am curious: what TGI value has been reported for `Cc1c(/C=N\NC(=S)N(C)CCN(C)C(=S)N/N=C\c2c(C)n(C)n(-c3ccccc3)c2=O)c(=O)n(-c2ccccc2)n1C` ?
-- reply > 100 µM

---

In this section, each of the compounds is paired with its reported TGI.
- Test system: MALME-3M melanoma
- test description: NCI tumour cell line growth inhibition, 48 h

{"columns": ["compound", "system", "TGI"],
 "data": [
  ["COc1ccc(C=O)c(N(C)C(=O)C(C)(C)C)c1", "MALME-3M melanoma", "> 100 µM"],
  ["c1cc(-c2ccc(Oc3ccc(-c4ccncc4)cc3)cc2)ccn1", "MALME-3M melanoma", "> 44 µM"]
]}

Here's the next entry for you.
-- ask I am curious: what TGI value has been reported for CC(=O)C(CN1CCOCC1)C(c1ccccc1)c1c(O)c2ccccc2oc1=O (stereo not drawn) ?
-- reply > 100 µM

---

In this section, each of the molecules is paired with its reported TGI.
- Test system: K-562 leukemia
- test description: NCI tumour cell line growth inhibition, 48 h

-- ask I am curious: what TGI value has been reported for CCC1c2[nH]c3ccccc3c2C[C@H]2C(=O)NC(Cc3ccccc3)C(=O)N12 (stereo partly drawn) ?
-- reply > 100 µM

-- ask I am curious: what TGI value has been reported for COC(=O)CC(CC(=O)C(=O)OC)C(=O)OC (stereo not drawn) ?
-- reply > 100 µM

-- ask I am curious: what TGI value has been reported for CCCCCNC(=O)C1C(=O)N(CCCCC)C(=O)/C1=N\N (stereo not drawn) ?
-- reply > 100 µM

-- ask I am curious: what TGI value has been reported for `O=C1/C(=C\c2ccccc2)CN(C(=O)c2ccccc2F)C/C1=C\c1ccccc1` ?
-- reply > 20.7 µM

-- ask I am curious: what TGI value has been reported for COc1cc([C@@H]2c3cc4c(cc3[C@@H](N=Cc3ccc(C(=O)O[C@H]5C[C@H]6OC[C@@]6(OC(C)=O)[C@H]6[C@H](OC(=O)c7ccccc7)[C@]7(O)C[C@H](OC(=O)[C@H](OC(=O)c8ccc(C=N[C@@H]9c%10cc%11c(cc%10[C@@H](c%10cc(OC)c(O)c(OC)c%10)[C@H]%10C(=O)OC[C@@H]%109)OCO%11)cc8)[C@@H](NC(=O)c8ccccc8)c8ccccc8)C(C)=C([C@@H](OC(C)=O)C(=O)[C@]56C)C7(C)C)cc3)C3COC(=O)C32)OCO4)cc(C)c1O (stereo partly drawn) ?
-- reply > 50 µM

-- ask I am curious: what TGI value has been reported for O=C(NCCS(=O)(=O)N1C(=O)C2CCCN2C(=O)[C@@H]1Cc1ccccc1)OCc1ccccc1 (stereo partly drawn) ?
-- reply > 100 µM

-- ask I am curious: what TGI value has been reported for C=C1CCC2C3(C)COC(c4cccc(Cl)c4)OC3CCC2(C)C1/C=C/C1=CCOC1=O (stereo not drawn) ?
-- reply > 100 µM

-- ask I am curious: what TGI value has been reported for `N/C(=N\N=C=C1C(=O)Nc2ccc(F)cc21)NO` ?
-- reply > 100 µM

---

- System: SK-OV-3 ovarian
- test description: NCI tumour cell line growth inhibition, 48 h
In this section, each of the compounds is paired with its reported GI50.

Example entries begin here.
{"columns": ["compound", "GI50"],
 "data": [
  ["COc1cc2c(cc1OCCCN1CCN(CCCOc3cc4c(cc3OC)C(=O)C3CCC[C@H]3C=N4)CC1)N=C[C@@H]1CCCC1C2=O (some centres undefined)", "63.5 µM"],
  ["OCCC#Cc1ccccc1C#Cc1ccccc1", "17.3 µM"],
  ["C#CCSc1nnnn1-c1ccc(Br)c(C)c1", "30 µM"]
]}

-- ask I am curious: what GI50 value has been reported for `COc1ccc2c(c1)C(=O)/C(=C/c1ccc(OCC(=O)c3ccc(Cl)cc3)cc1)O2` ?
-- reply 62.5 µM

---

In this section, each of the compounds is paired with its reported TGI.
- Tested on: BT-549 breast
- test description: NCI tumour cell line growth inhibition, 48 h

{"columns": ["compound", "TGI"],
 "data": [
  ["O=C(CN1c2ccccc2Sc2ccccc21)n1cnc2ccccc21", "> 100 µM"],
  ["CCOC(=O)/C(=C/c1c(-c2ccccc2)[nH]c2ccccc12)C(=O)c1ccc(Cl)cc1", "> 100 µM"],
  ["CCOC(=O)C(NC(=O)Nc1ccccc1F)(OC)C(F)(F)F (configuration not stated)", "> 100 µM"]
]}

-- ask Form field: TGI recorded for CC1(C)OCC(C2OC(On3nnc4ccc(Cl)cc43)C3OC(C)(C)OC23)O1 (configuration not stated) with BT-549 breast (enter value)
-- reply > 100 µM

-- ask Form field: TGI recorded for `NC(=S)NS(=O)(=O)c1ccc(F)cc1` with BT-549 breast (enter value)
-- reply > 100 µM

-- ask Form field: TGI recorded for `CC(C)(C)OC(=O)N1CCC[C@H]1CSC[C@@H]1CCCN1C(=O)OC(C)(C)C` with BT-549 breast (enter value)
-- reply 58.9 µM

-- ask Form field: TGI recorded for CCOP(=O)(OCC)OC1CC(n2cnc3c(N(CC)CC)ncnc32)OC1CO[Si](C)(C)C(C)(C)C (configuration not stated) with BT-549 breast (enter value)
-- reply 29.7 µM

-- ask Form field: TGI recorded for `Oc1ccc(-c2nc(-c3ccc(F)cc3)c(-c3ccncc3)[nH]2)cc1` with BT-549 breast (enter value)
-- reply 64 µM

-- ask Form field: TGI recorded for COc1ccc2c(c1)CC[C@@H]1C2CC[C@]2(C)C(=O)N(C)C(=O)CC12 (some centres not stated) with BT-549 breast (enter value)
-- reply > 100 µM

-- ask Form field: TGI recorded for `CSc1ccc(C=C2N=C(c3ccccc3)N(c3cc(C(=O)c4ccccc4)ccc3N3C(=O)/C(=C/c4ccc(SC)cc4)N=C3c3ccccc3)C2=O)cc1` with BT-549 breast (enter value)
-- reply > 100 µM

-- ask Form field: TGI recorded for O=C(O)C1CCCCN1CCc1c[nH]c2ccccc12 (configuration not stated) with BT-549 breast (enter value)
-- reply > 100 µM

-- ask Form field: TGI recorded for `O=c1[nH]nc(Cc2ccc(Cl)cc2)n1Nc1ccccc1` with BT-549 breast (enter value)
-- reply > 100 µM

-- ask Form field: TGI recorded for `Cc1[nH]c2ncn(N)c(=N)c2c1Cc1ccccc1` with BT-549 breast (enter value)
-- reply > 100 µM

-- ask Form field: TGI recorded for `COc1cccc2c(=O)c3c(O)c4cc(N(C)C)ccc4c(OC(C)=O)c3oc12` with BT-549 breast (enter value)
-- reply 21.9 µM

-- ask Form field: TGI recorded for Nc1nc(Cl)cc(NCC2(CO)CC(O)C2)n1 (configuration not stated) with BT-549 breast (enter value)
-- reply > 100 µM

-- ask Form field: TGI recorded for `CC(C)Cn1cnnc1NS(=O)(=O)c1cc(C(=O)NN)c(Cl)cc1S` with BT-549 breast (enter value)
-- reply > 10 µM

-- ask Form field: TGI recorded for CC1OC(OC2C(OC3CCC4(C)C(CCC5(C)C4CC=C4C6CC(C)(C)CCC6(CO)C(O)CC45C)C3(C)C)OC(C(=O)O)C(OC3OC(COC4OC(CO)C(O)C(O)C4O)C(O)C(O)C3O)C2O)C(O)C(O)C1O (configuration not stated) with BT-549 breast (enter value)
-- reply 2.49 µM
